Taken from paper PMC2741613.

- TEST SYSTEM: UniProt P18433
- Sequence (P18433 20-802): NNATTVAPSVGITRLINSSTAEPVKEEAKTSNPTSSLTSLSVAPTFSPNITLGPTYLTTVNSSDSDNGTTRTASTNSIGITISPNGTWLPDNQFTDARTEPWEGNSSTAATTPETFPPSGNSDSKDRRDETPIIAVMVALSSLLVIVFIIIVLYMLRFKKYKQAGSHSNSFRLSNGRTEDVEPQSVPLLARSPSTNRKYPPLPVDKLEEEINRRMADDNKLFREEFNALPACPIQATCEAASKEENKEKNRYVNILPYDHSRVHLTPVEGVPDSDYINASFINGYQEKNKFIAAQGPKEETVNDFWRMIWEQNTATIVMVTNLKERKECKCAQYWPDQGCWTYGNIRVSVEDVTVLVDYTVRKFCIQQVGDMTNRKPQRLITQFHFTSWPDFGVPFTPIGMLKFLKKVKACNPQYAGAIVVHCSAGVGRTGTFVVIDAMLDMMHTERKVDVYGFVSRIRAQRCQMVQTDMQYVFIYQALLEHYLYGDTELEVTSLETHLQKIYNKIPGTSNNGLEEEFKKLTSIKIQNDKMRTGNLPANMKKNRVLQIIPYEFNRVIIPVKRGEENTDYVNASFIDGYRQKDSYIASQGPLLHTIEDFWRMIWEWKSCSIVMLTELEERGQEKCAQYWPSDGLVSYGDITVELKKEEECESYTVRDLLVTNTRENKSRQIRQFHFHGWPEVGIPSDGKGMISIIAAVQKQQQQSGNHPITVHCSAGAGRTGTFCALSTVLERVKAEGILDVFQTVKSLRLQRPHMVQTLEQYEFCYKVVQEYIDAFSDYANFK
pKi: −log10 of the molar value.
RECORDED METRIC: pKi

IN: Form entry - test system: UniProt P18433; read-out: pKi; compound: CCc1ccc(C(=O)NCCCC[C@H](NC(=O)[C@H](Cc2ccc(C(F)(F)P(=O)(O)O)cc2)NC(=O)[C@H](Cc2ccccc2)NC(=O)CO[C@H]2C[C@@H](C)CC[C@@H]2C(C)C)C(N)=O)cc1
OUT: < 6.00

---

- TEST SYSTEM: LAR (Homo sapiens, UniProt P10586)
- Sequence (P10586 30-1907, species assumed): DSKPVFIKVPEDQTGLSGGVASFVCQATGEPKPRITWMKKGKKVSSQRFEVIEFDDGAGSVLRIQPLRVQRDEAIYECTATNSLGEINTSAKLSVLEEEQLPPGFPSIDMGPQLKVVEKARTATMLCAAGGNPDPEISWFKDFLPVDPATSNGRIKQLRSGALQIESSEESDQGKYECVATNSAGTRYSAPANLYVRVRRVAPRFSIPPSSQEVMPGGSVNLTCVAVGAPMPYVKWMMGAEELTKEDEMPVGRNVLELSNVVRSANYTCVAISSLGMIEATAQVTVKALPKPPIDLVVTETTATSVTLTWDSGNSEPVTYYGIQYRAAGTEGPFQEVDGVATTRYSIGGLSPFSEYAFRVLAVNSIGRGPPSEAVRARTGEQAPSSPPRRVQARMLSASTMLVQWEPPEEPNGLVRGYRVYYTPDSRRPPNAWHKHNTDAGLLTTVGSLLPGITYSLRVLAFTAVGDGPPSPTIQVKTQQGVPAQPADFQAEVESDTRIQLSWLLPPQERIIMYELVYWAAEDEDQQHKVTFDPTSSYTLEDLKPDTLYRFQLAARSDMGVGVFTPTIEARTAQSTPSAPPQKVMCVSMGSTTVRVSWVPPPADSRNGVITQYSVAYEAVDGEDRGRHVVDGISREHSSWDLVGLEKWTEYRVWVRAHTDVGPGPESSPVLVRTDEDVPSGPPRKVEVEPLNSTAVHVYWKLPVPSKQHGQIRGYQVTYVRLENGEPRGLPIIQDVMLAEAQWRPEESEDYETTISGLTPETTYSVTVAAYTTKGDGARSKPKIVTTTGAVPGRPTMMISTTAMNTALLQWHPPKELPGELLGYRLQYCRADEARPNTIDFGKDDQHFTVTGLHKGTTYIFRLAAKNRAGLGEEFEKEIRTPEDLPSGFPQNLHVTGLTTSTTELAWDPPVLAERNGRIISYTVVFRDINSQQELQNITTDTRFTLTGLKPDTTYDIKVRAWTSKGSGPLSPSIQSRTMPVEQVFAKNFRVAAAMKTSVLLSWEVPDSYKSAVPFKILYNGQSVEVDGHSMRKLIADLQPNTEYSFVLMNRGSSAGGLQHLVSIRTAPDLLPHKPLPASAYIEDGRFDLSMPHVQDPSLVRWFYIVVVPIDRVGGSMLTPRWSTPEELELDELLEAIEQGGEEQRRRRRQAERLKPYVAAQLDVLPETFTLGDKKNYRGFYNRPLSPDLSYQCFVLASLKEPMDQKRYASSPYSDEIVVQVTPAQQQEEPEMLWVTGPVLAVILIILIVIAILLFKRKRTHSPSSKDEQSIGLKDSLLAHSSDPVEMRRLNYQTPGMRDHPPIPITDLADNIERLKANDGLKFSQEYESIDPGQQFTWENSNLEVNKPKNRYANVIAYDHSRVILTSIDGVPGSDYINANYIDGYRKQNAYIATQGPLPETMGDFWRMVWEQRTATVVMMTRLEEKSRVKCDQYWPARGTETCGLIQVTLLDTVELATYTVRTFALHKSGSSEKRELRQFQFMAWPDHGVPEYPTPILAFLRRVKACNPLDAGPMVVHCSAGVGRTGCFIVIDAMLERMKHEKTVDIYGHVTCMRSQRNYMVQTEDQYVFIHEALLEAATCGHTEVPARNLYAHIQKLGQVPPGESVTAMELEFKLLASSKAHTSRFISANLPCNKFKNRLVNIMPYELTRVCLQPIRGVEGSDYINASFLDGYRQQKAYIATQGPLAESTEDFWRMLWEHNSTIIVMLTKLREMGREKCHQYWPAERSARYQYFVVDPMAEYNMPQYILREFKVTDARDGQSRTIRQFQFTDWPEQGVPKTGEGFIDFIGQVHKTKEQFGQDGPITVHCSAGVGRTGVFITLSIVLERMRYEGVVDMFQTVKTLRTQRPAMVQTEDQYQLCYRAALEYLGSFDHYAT
RECORDED METRIC: Ki

IN: Tell me reported Ki for CCc1ccc(C(=O)NCCCC[C@H](NC(=O)[C@H](Cc2ccc(C(F)(F)P(=O)(O)O)cc2)NC(=O)[C@H](Cc2ccccc2)NC(=O)CO[C@H]2C[C@@H](C)CC[C@@H]2C(C)C)C(N)=O)cc1 , tested with LAR (Homo sapiens, UniProt P10586).
OUT: > 1 µM
